test: inhibitors of TNFa-induced NFkB p65 translocation, primary screen, imaging, HUVEC, MLSMR starter and 10KST1 sets (AID 438); settings: HUVEC TNFa-induced p65 nuclear translocation; measured here: nuclei count (cytotoxicity indicator), at 2.08 µM;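 also: compound added about 3h40 before a 20 min TNFalpha stimulation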
Measured Parameter: cell count
API doc: respond with a numeric literal and nothing else, no unit.

Before answering, review these 8 worked examples.
>>> print(df.to_string())
                                   compound  measured_parameter  observed_measurement
0  O=C(c1ccco1)N1CCN(C(=O)c2sccc2-c2ccccc2)CC1          cell count                   310
1            COCc1nnc(NC(=O)CCCOc2ccccc2)s1          cell count                   732
2  O=C1C(=O)N(Cc2cccnc2)C(c2ccccn2)/C1=C(/O)c1ccccc1 (stereo not drawn)          cell count                   620
3  Cn1c(-c2ccc(F)cc2)cnc1SCC(=O)Nc1ccccc1N1CCOCC1          cell count                   458
4  Cc1csc(NC(=O)CSc2nnc(Cc3cccn3C)n2-c2ccc(F)cc2)n1          cell count                   688
5  CC1(C)NC(=O)N(CC(O)COc2cc3ccccc3cc2C(=O)N2CCCCC2)C1=O (stereo not drawn)          cell count                   595
6  Nc1nc2n(n1)C(c1cccs1)CC(c1ccc(F)cc1)N2 (stereo not drawn)          cell count                   385
7  Cn1c(=O)c2c(nc(NCc3ccc4c(c3)OCO4)n2Cc2ccccc2Cl)n(C)c1=O          cell count                   634

// cell count value for CC1(C)Cc2c(C#N)c(SCC(=O)c3ccccc3)nc(N3CCOCC3)c2CS1 : 567

// cell count value for Cc1nnc(SCC(=O)N2CCOCC2)c2ccccc12 : 489

// cell count value for COC(=O)c1ccccc1NC(=O)COc1ccc(S(=O)(=O)N2CCCC2)cc1C : 618

// cell count value for CCn1c(C)cc(=S)c2ccccc21 : 587

// cell count value for CS(=O)(=O)N(CC(=O)NCCSCc1cccc(Cl)c1)c1ccc2c(c1)OCO2 : 233

// cell count value for COCCCNc1nc2c(c(=O)[nH]c(=O)n2C)n1CC(O)COc1ccccc1 (stereo not drawn) : 379

// cell count value for C=CCc1ccccc1OCCCCN1CCCC1 : 750

// cell count value for CCOC(=O)C1CCN(C(=O)c2ccc(Cl)c(Cl)c2)CC1 : 322

// cell count value for O=C1C=C(N2CCN(C3=CC(=O)CCC3)CC2)CCC1 : 493

// cell count value for Cn1c(OCc2cccnc2)nc2c1c(=O)n(Cc1ccc(Br)cc1)c(=O)n2C : 723

// cell count value for O=C(NCC(F)(F)F)Nc1cccnc1 : 309

// cell count value for COc1ccc(NC(=O)CSc2nnc(Cc3cccn3C)n2-c2ccc(F)cc2)cc1 : 576

// cell count value for O=P1(O)C=C(c2ccccc2)NC(c2ccccc2)=C1 : 405

// cell count value for CCOc1ccc(C(=O)N2CCN(C(=O)c3ccco3)CC2)cc1OCC : 558

// cell count value for CN1C(=O)NC(c2ccccc2)C2=C1CN(Cc1ccccc1)C2=O (stereo not drawn) : 400
